Ref: patent US20260325654A1

Overview of recorded pIC50 for various compounds
System: AGS
Experiment: CellTiter-Glo Reagent cancer cell line proliferation assay, AGS
Type: cell-based, human
Conditions: Homo sapiens, 24 h, KRAS(G12D) heterozygous
Protocol: […] Cells were plated in 96-well tissue culture plates at 4,000 cells/well and incubated at 37° C./5% CO2 for 24 hr in 100 μl of media. […] Results were analyzed and IC50-values were calculated in GraphPad 7 software.
pIC50: −log10 of the molar value.

Reference set (4 entries):
INSERT INTO assay_data (compound, assay_readout, observed) VALUES
  ('C#Cc1c(F)ccc2cc(O)cc(-c3ncc4c(N5CC6CCC(C5)N6C(=O)CC(C)C#N)nc(OCC5CCCN(CC6CCN(c7ccc8c(c7)CN(C7CCC(=O)NC7=O)C8=O)CC6)C5)nc4c3F)c12 (stereo not drawn)', 'pIC50', '> 7.00'),
  ('C#Cc1c(F)ccc2cc(O)cc(-c3ncc4c(N5CC6CCC(C5)N6C(=O)CC(C)C#N)nc(OCC5(CN6CCN(CC7CCN(c8ccc9c(c8)CN(C8CCC(=O)N(C)C8=O)C9=O)CC7)CC6)CC5)nc4c3F)c12 (stereo not drawn)', 'pIC50', '6.00 to 7.00'),
  ('C#Cc1c(F)ccc2cc(O)cc(-c3ncc4c(N5CCN(C(=O)CC#N)[C@@H](CC#N)C5)nc(OCC5(CN6CCN(CC7CCN(c8ccc9c(c8)CN(C8CCC(=O)NC8=O)C9=O)CC7)CC6)CC5)nc4c3F)c12 (stereo partly drawn)', 'pIC50', '< 6.00'),
  ('O=CO.[2H]C([2H])([2H])Oc1nc(-c2cc(O)cc3ccc(F)c(C#C)c23)c(F)c2nc(OCC3(CN4CCN(CC5CCN(c6ccc7c(c6)CN(C6CCC(=O)NC6=O)C7=O)CC5)CC4)CC3)nc(N3CC4CCC(C3)N4C(=O)CC(C)C#N)c12 (stereo not drawn)', 'pIC50', '> 7.00');

Identify the reported pIC50 for the following entry. O=C1CCC(N2C(=O)c3ccc(CN4CCN([C@H]5CN6CCCC6(COc6nc(N7CC8CCC(C7)N8)c7cnc(-c8cc(O)cc9ccccc89)c(F)c7n6)C5)CC4)cc3C2=O)C(=O)N1 (stereo partly drawn)
< 6.00
